Target: T1, Human CD3eg linker (human)
T1 construct: Single chain: epsilon and gamma subunits of human CD3 joined by a 29-mer linker, Flag-tag at the C-terminus; also called recombinant human CD3
T1 chain: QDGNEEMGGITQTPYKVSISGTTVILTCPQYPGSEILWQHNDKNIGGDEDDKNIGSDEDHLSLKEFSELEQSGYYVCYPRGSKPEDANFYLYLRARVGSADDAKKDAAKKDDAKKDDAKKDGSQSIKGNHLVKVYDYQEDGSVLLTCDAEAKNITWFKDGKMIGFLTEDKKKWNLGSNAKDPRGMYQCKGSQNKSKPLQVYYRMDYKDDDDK
Experiment: Biacore SPR, vs template H183/L072
Parameter: fold change of affinity. Scope: all listed entries.
Give just the number in fold; leave the unit off.

Use the examples below as a reference point.
H183/L072 VH T28L (antibody, name in Kabat numbering, V domains shown) VH: QVQLVESGGGLVQPGRSLRLSCAASGFLFSNAWMHWVRQAPGKGLEWVAQIKDKGNAYAAYYAPSVKGRFTISRDDSKNSIYLQMNSLKTEDTAVYYCHYVHYASASTVLPAFGVDAWGQGTTVTVSS VL: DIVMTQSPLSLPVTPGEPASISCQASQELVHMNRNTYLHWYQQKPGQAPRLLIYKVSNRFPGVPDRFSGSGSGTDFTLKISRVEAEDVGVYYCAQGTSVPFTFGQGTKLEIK
0.9
H183/L072 VH G52cK (antibody, name in Kabat numbering, V domains shown) VH: QVQLVESGGGLVQPGRSLRLSCAASGFTFSNAWMHWVRQAPGKGLEWVAQIKDKKNAYAAYYAPSVKGRFTISRDDSKNSIYLQMNSLKTEDTAVYYCHYVHYASASTVLPAFGVDAWGQGTTVTVSS VL: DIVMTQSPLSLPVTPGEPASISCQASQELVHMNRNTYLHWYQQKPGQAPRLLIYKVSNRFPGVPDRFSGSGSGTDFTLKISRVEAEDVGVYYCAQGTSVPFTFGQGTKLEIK
1.6
H183/L072 VH A56Q (antibody, name in Kabat numbering, V domains shown) VH: QVQLVESGGGLVQPGRSLRLSCAASGFTFSNAWMHWVRQAPGKGLEWVAQIKDKGNAYQAYYAPSVKGRFTISRDDSKNSIYLQMNSLKTEDTAVYYCHYVHYASASTVLPAFGVDAWGQGTTVTVSS VL: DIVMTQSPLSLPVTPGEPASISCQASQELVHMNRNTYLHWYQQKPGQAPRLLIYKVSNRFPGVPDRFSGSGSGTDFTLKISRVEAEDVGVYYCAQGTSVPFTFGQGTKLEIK
1
H183/L072 VH M34N (antibody, name in Kabat numbering, V domains shown) VH: QVQLVESGGGLVQPGRSLRLSCAASGFTFSNAWNHWVRQAPGKGLEWVAQIKDKGNAYAAYYAPSVKGRFTISRDDSKNSIYLQMNSLKTEDTAVYYCHYVHYASASTVLPAFGVDAWGQGTTVTVSS VL: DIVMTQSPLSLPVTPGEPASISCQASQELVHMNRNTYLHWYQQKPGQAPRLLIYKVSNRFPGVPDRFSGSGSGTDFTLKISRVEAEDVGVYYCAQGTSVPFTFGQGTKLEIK
0

Value lookup for fold change of affinity; key = H183/L072 VH N31L (antibody, name in Kabat numbering, V domains shown) VH: QVQLVESGGGLVQPGRSLRLSCAASGFTFSLAWMHWVRQAPGKGLEWVAQIKDKGNAYAAYYAPSVKGRFTISRDDSKNSIYLQMNSLKTEDTAVYYCHYVHYASASTVLPAFGVDAWGQGTTVTVSS VL: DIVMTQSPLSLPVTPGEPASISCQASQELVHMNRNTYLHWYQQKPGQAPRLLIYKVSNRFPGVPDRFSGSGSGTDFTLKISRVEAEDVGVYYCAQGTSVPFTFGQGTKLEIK
0.2
